Values compiled from patent US20040028714A1.

System: German cockroaches (Blatella Germanica)
Experiment: Cockroach repellency screening on partially treated formica surface (Example 2)
Assay type: in vivo
Settings: cockroaches; 20 mg/m^2 on formica; average of days 1, 2 and 3
// reported Percentage Present, Untreated Section, Average for each item listed
Provide the reading as a plain figure in %.

CCN(CC)C(=O)C1CC(C)CCC1C(C)C (stereo not drawn) [Compound 6, N,N-diethyl-p-menthane-3-carboxamide]; 88.7
CC1CCC(C(C)C)C(C(=O)Nc2ccccc2)C1 (stereo not drawn) [Compound 4, N-phenyl-p-menthane-3-carboxamide]; 68.3
CCNC(=O)C1CC(C)CCC1C(C)C (stereo not drawn) [Compound 2, N-ethyl-p-menthane-3-carboxamide]; 82.9
CC1CCC(C(C)C)C(C(=O)N(C)C)C1 (stereo not drawn) [Compound 5, N,N-dimethyl-p-menthane-3-carboxamide]; 85.9
CCCNC(=O)C1CC(C)CCC1C(C)C (stereo not drawn) [Compound 3, N-propyl-p-menthane-3-carboxamide]; 90.0

The compound identified as CNC(=O)C1CC(C)CCC1C(C)C (stereo not drawn) [Compound 1, N-methyl-p-menthane-3-carboxamide] registered its Percentage Present, Untreated Section, Average at 82.9
